Provenance of the data: patent US12187722B2

# tested.target: TEAD2 (Homo sapiens (Human))
# experiment.description: In vitro palmitoylation (TEAD2 autopalmitoylation, streptavidin blot)
# Type: biochemical
# particulars: compound at 10 μM; Table 3
Each entry below carries its reported inhibition at 10 µM.

Consider the following illustrative entries.
Looking for the measured inhibition at 10 µM of `Cc1cc(N(C)c2ccc(C3CCCCC3)cc2)ccc1Nc1ccc(C2CC2)cc1C(=O)O` , can you help?
39%

Request the reported inhibition at 10 µM associated with `CNS(=O)(=O)c1ccc(Nc2ccc(N(C)c3ccc(C4CCCCC4)cc3)cc2C)c(C#N)c1`
18%

New cases:
Recorded inhibition at 10 µM of `O=C(O)c1ccccc1Nc1ccc(Oc2ccc(C3CCCCC3)cc2Cl)nc1` , please.
99%

For the compound COc1ccc(Nc2ccc(N(C)c3ccc(C4CCC(C)CC4)cc3)cc2)c(C(=O)O)c1 (stereo not shown) , what inhibition at 10 µM is on record?
91%

---

# tested.target: TEAD2 (Homo sapiens (Human))
# experiment.description: In vitro palmitoylation (TEAD2 autopalmitoylation, streptavidin blot)
# Format: biochemical
# particulars: compound at 10 μM; Table 2
measured.attribute: inhibition at 10 µM
Show the value, then the unit it is measured in.

A selection of reference data follows.
Notebook entry, TEAD2 (Homo sapiens (Human)) assay: inhibition at 10 µM of `O=C(O)c1ccccc1Nc1ccc(N(c2ccc(C34CC5CC(CC(C5)C3)C4)cc2)C(F)(F)F)cc1` = ?
76%

// fetch TEAD2 (Homo sapiens (Human)) inhibition at 10 µM for `O=C(CCc1ccc(Nc2ccccc2C(=O)O)cc1)Nc1ccc(C23CC4CC(CC(C4)C2)C3)cc1`
10%

Request body: readout inhibition at 10 µM, system TEAD2 (Homo sapiens (Human)), query O=C(O)C1CCCC1Nc1ccc(C23CC4CC(CC(C4)C2)C3)cc1 (centres unmarked) . Return the value.
74%

Can you look up inhibition at 10 µM on TEAD2 (Homo sapiens (Human)) for `O=C(O)c1ccnc(Nc2ccc(Nc3ccc(C45CC6CC(CC(C6)C4)C5)cc3Cl)cc2)c1` ?
90%

Kindly state the measured inhibition at 10 µM obtained for `O=C(O)c1cnn(Cc2ccc(Nc3ccc(C45CC6CC(CC(C6)C4)C5)cc3Cl)cc2)c1` with TEAD2 (Homo sapiens (Human)).
80%

---
Enter reported inhibition at 10 µM observed with TEAD2 (Homo sapiens (Human)) for `CC12CC3CC(C)(C1)CC(c1ccc(Oc4ccc(Nc5ncccc5C(=O)O)cc4)c(Cl)c1)(C3)C2`
100%

Lab request: please report inhibition at 10 µM under test system TEAD2 (Homo sapiens (Human)) for `CCCCN(CCCC)C(=O)c1ccc(Nc2ccccc2C(=O)O)cc1`
41%

// fetch TEAD2 (Homo sapiens (Human)) inhibition at 10 µM for O=C(O)C1CCCCC1Nc1ccc(C23CC4CC(CC(C4)C2)C3)cc1 (centres unmarked)
25%

What reported inhibition at 10 µM corresponds to `CN(c1ccc(N(C)c2ncccc2C(=O)O)cc1)c1ccc(C23CC4CC(CC(C4)C2)C3)cc1Cl` on TEAD2 (Homo sapiens (Human))?
100%

Give the reported inhibition at 10 µM for `O=C(CNc1ccc(Nc2ncccc2C(=O)O)cc1)Nc1ccc(C23CC4CC(CC(C4)C2)C3)cc1` (system: TEAD2 (Homo sapiens (Human))).
49%

---

# tested.target: TEAD2 (Homo sapiens (Human), UniProt Q15562)
# Sequence (Q15562 whole entry): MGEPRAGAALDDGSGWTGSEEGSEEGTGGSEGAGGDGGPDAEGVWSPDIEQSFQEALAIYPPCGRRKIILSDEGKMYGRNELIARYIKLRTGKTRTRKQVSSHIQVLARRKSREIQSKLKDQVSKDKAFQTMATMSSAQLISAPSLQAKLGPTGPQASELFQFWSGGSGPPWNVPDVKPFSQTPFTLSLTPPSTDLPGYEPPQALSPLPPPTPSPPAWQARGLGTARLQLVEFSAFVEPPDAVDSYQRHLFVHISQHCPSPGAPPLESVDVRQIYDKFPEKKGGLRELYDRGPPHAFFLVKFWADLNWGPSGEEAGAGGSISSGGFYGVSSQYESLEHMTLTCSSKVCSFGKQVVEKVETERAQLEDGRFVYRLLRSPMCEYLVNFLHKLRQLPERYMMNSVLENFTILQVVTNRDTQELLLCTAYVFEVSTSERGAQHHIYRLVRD
# experiment.description: In vitro palmitoylation (TEAD2 autopalmitoylation, streptavidin blot)
# Assay type: biochemical
# particulars: compound at 10 μM; Table 3
measured.attribute: inhibition at 10 µM (%)
Report the figure in % without appending any unit label.

Consider the reported inhibition at 10 µM for these molecules:
GET /values?readout=inhibition at 10 µM&system=TEAD2 (Homo sapiens (Human), UniProt Q15562)&item= `COc1ccc(Nc2ccc(N(C)c3ccc(C4CCCCC4)cc3)cc2F)c(C(=O)O)c1`
85

Record `COc1ccc(Nc2ccc(N(C)c3ccc(C4CCCCC4)cc3)nc2)c(C(=O)O)c1` : what is its inhibition at 10 µM with TEAD2 (Homo sapiens (Human), UniProt Q15562)?
74

Which inhibition at 10 µM is reported with TEAD2 (Homo sapiens (Human), UniProt Q15562) for this entry: `CNS(=O)(=O)c1ccc(Nc2ccc(N(C)c3ccc(C4CCCCC4)cc3)cc2C)nc1C(=O)O` ?
90

Param readout= inhibition at 10 µM; system= TEAD2 (Homo sapiens (Human), UniProt Q15562); entry= `COc1ccc(Nc2ccc(N(C)c3ccc(OC(F)(F)F)cc3)nc2)c(C(=O)O)c1` ; returns value.
48

Please provide the recorded inhibition at 10 µM for `Cc1cc(Oc2ccc(C34CC5CC(C)(CC(C)(C5)C3)C4)cc2Cl)ccc1Nc1ccccc1C(=O)O` , tested on TEAD2 (Homo sapiens (Human), UniProt Q15562).
90

Continuing:
Give inhibition at 10 µM (TEAD2 (Homo sapiens (Human), UniProt Q15562)) of the following molecule: `COc1ccc(Nc2ccc(N(C)c3ccc(C4CCCCC4)cc3)cc2)c(C(=O)O)c1`
96

Request body: readout inhibition at 10 µM, system TEAD2 (Homo sapiens (Human), UniProt Q15562), query `COc1ccc(Nc2ccc(N(C)c3ccc(OC(F)(F)F)cc3)cc2)c(C(=O)O)c1` . Return the value.
86

Could you share what inhibition at 10 µM was measured for `CN(c1ccc(Nc2ccc(NS(C)(=O)=O)cc2C(=O)O)cc1)c1ccc(C(F)(F)F)cc1` , tested on TEAD2 (Homo sapiens (Human), UniProt Q15562)?
83

---

Listing of recorded inhibition at 10 µM by entry.
# tested.target: TEAD2 (Homo sapiens (Human))
# experiment.description: In vitro palmitoylation (TEAD2 autopalmitoylation, streptavidin blot)
# Type: biochemical
# particulars: compound at 10 μM; Table 3
I only need the number, in %, no unit after it.

For the compound `CN(c1ccc(Nc2ncccc2C(=O)O)cc1)c1ccc(C2CCCCC2)cc1` , what inhibition at 10 µM is on record?
66

Could you share which inhibition at 10 µM value was measured for `COc1ccc(Nc2ccc(N(C)c3ccc(C(F)(F)F)cc3)nc2)c(C(=O)O)c1` ?
40

Dear colleague, I am looking for the recorded inhibition at 10 µM of the following compound: `COc1ccc(Nc2cnc(N(C)c3ccc(C4CCCCC4)cc3)cc2C)c(C(=O)O)c1`
54

What value of inhibition at 10 µM has been recorded for this entry: `COc1ccc(Nc2ccc(N(C)c3ccc(C4CCC(C)(C)CC4)cc3)cc2)c(C(=O)O)c1`
78

Given the entry `COc1ccc(Nc2cc(Nc3ccc(C4CCCCC4)cc3Cl)cc(C(F)(F)F)c2)nc1C(=O)O` , report its measured inhibition at 10 µM.
83

What value of measured inhibition at 10 µM is listed for `COc1ccc(Nc2ccc(Nc3ccc(C45CC6CC(CC(C6)C4)C5)cc3Cl)cc2)nc1C(=O)O` ?
93

I would be grateful if you could share the reported inhibition at 10 µM for `COc1ccc(Nc2ccc(N(C)c3ccc(S(F)(F)(F)(F)F)cc3)cc2C)c(C(=O)O)c1` .
94

---

# tested.target: TEAD2 (Homo sapiens (Human), UniProt Q15562)
# experiment.description: In vitro palmitoylation (TEAD2 autopalmitoylation, streptavidin blot)
# Format: biochemical
# particulars: compound at 10 μM; Table 2
Measured inhibition at 10 µM by item
The reply should be a number in %, with the unit left off.

Solved entries:
// returns reported inhibition at 10 µM for input O=C(O)C1CNCC1Nc1ccc(Nc2ccc(C34CC5CC(CC(C5)C3)C4)cc2Cl)cc1 (centres unmarked)
72

# inhibition at 10 µM lookup, item `O=C(Nc1ccc(Nc2ccccc2C(=O)O)cc1)c1ccc(C23CC4CC(CC(C4)C2)C3)cc1`
80

Please report the recorded inhibition at 10 µM for `O=C(O)c1cccnc1Nc1cccc(Nc2cccc(C34CC5CC(CC(C5)C3)C4)c2)c1` .
80

Which inhibition at 10 µM value is on record for `CC(C)c1ccccc1-c1ccc(Oc2ccc(N(C)c3ccccc3C(=O)O)cc2)c(Cl)c1` ?
62

Record request: inhibition at 10 µM value, item `CN(c1ccc(Nc2ccccc2C(=O)O)cc1)c1ccc(C23CC4CC(CC(C4)C2)C3)cc1`
100

So what's the measured inhibition at 10 µM for this one? `O=C(Nc1ccc(C23CC4CC(CC(C4)C2)C3)cc1)c1ccc(Nc2cccc(C(=O)O)n2)cc1`
56

inhibition at 10 µM for `O=C(O)Cn1cc2cc(Nc3ccc(C45CC6CC(CC(C6)C4)C5)cc3Cl)ccc2n1` ?
85

We next turn to a different compound, shown below.
Endpoint output: inhibition at 10 µM of `CN(c1ccc(Oc2ccc(C34CC5CC(CC(C5)C3)C4)cc2)cc1)c1ncccc1C(=O)O` . Value?
100

---

# tested.target: TEAD2 (Homo sapiens (Human), UniProt Q15562)
# experiment.description: In vitro palmitoylation (TEAD2 autopalmitoylation, streptavidin blot)
# Format: biochemical
# particulars: compound at 10 μM; Table 3
Tick True if inhibition at 10 µM is 80% or greater. Tick False if inhibition at 10 µM is less than 80%.

These recorded examples may help you get a feel for the data.
Hi team, for O=C(O)c1cccnc1Nc1cccc(Nc2ccc(C3CCCCC3)cc2Cl)c1 [CP-677] , is the recorded inhibition at 10 µM at or above 80%?
True

Quick check, inhibition at 10 µM >= 80%? CCCCOc1ccc(Nc2ccc(N(C)c3ccc(C4CCCCC4)cc3)cc2C)c(C(=O)O)c1 [CP-628]
False

Given CNC(=O)c1cc(OC)ccc1Nc1ccc(N(C)c2ccc(C(F)(F)F)cc2)cc1 [CP-606] , state whether its inhibition at 10 µM is at least 80%.
False

inhibition at 10 µM >= 80% for Cc1cc(N(C)c2ccc(C3CCCCC3)cc2)ncc1Nc1cccc(C(=O)O)n1 [CP-652] ?
False

Kindly determine if inhibition at 10 µM recorded for COc1ccc(Nc2ccc(N(C)c3cc(Cl)cc(Cl)c3)cc2)c(C(=O)O)c1 [CP-612] is above or exactly 80%.
True

Check this compound for inhibition at 10 µM at or above 80%: COc1ccc(Nc2ccc(N(C)c3ccc(OCC(F)(F)F)cc3)cc2F)c(C(=O)O)c1 [CP-568]
False

Check this compound for inhibition at 10 µM at or above 80%: COc1ccc(Nc2ccc(C3CC3)cc2N(C)c2ccc(C3CCCCC3)cc2)c(C(=O)O)c1 [CP-623]
False

Could you verify whether the entry COc1ccc(Nc2ccc(N(C)c3ccc(C45CC6CC(CC(C6)C4)C5)cc3)cc2C)c(C(=O)O)c1 [CP-551] shows inhibition at 10 µM of no less than 80%?
True

Continuing:
Is the recorded value of inhibition at 10 µM equal to or greater than 80% for this compound? Cc1cc(N(C)c2ccc(OC(F)(F)F)cc2)ccc1Nc1cccc(C(=O)O)n1 [CP-647]
True

Threshold query (inhibition at 10 µM >= 80%) on O=C(Nc1ccc(C2CCCCC2)cc1Cl)c1cccc(Nc2ncccc2C(=O)O)c1 [CP-665]
True

Identify whether the reported inhibition at 10 µM of the following compound is 80% or greater: COc1ccc(Nc2ccc(N(C)c3ccc(S(F)(F)(F)(F)F)cc3)cc2F)c(C(=O)O)c1 [CP-573]
False

Is inhibition at 10 µM for O=C(O)c1cccc(Nc2cc(Nc3ccc(C4CCCCC4)cc3)cc(C(F)(F)F)c2)c1 [CP-662] at or above 80%?
True

Decide: is the reported value of inhibition at 10 µM for Cc1cc(N(C)c2ccc(C3CCCCC3)cc2)ccc1Nc1cccc(C(=O)O)n1 [CP-636] equal to or greater than 80%?
False

Could you verify whether the entry COc1ccc(Nc2ccc(N(C)c3ccc(C4CC5CCC4C5)cc3)cc2)c(C(=O)O)c1 (centres unmarked) [CP-538] shows inhibition at 10 µM of no less than 80%?
True

Determine whether this compound has inhibition at 10 µM no lower than 80%: COc1ccc(Nc2ccc(Oc3ccc(C(F)F)cc3Cl)cc2)c(C(=O)O)c1 [CP-575]
False

Check the entry Cc1cc(N(C)c2ccc(C3CCCCC3)cc2)ccc1Nc1ccc(N2CC3(COC3)C2)cc1C(=O)O [CP-627] : does inhibition at 10 µM equal or exceed 80%?
False

Could you tell me if the measured inhibition at 10 µM of COc1ccc(Nc2ccc(N(C)c3ccc(Cl)cc3Cl)cc2)c(C(=O)O)c1 [CP-542] reaches 80% or more?
False
